Answer each item with its documented Ki.
# TARGET_OF_ASSAY: human thrombin (Homo sapiens, UniProt P00734)
# Construct: Human α-thrombin (3,000 NIH units/mg); purchased Sigma
# PROTOCOL_DETAILS: Inhibition of amidolytic activity of human thrombin (fluorogenic, Tos-Gly-Pro-Arg-AMC), Ki
# Type: biochemical
# DETAILS: Table V; read-out: Ki

Observe how each entry below is paired with its result.
>>> result("4-bromobenzenesulfonyl-Arg (D-Pipecolic acid)-(12-aminododecanoic acid)-4-aminobutyric acid)- Asp-Phe-Glu-Pro-Ile-Pro-Tyr-OH [BCH-2733]")
"0.8 nM"
>>> result("2,4,6 triisopropylbenzensulfonyl-Arg (D-Pipecolic acid)-(12-aminododecanoicacid)-4-aminobutyric acid)-Asp-Phe-Glu-Pro-Ile-Pro-Tyr-OH [BCH-2444]")
"5.5 nM"
>>> result("tert-butylbezenesulfonyl-Arg (D-Pipecolic acid)-(12-aminododecanoic acid)-4-aminobutyric acid)-Asp-Phe-Glu-Pro-Ile-Pro-Tyr-OH [BCH-2736]")
"270 nM"

Below: the item to evaluate.
Write down Ki measured for item tert-butylbezenesulfonyl-Arg (D-Pipecolic acid)-(12-aminododecanoic acid)-4-aminobutyric acid)-Asp-Phe-Glu-Pro-Ile-Pro-Tyr-OH [BCH-2443] 1 nM

====

Answer each item with its documented Ki.
# TARGET_OF_ASSAY: human thrombin (Homo sapiens, UniProt P00734)
# Construct: Human α-thrombin (3,000 NIH units/mg); purchased Sigma
# PROTOCOL_DETAILS: Inhibition of amidolytic activity of human thrombin (fluorogenic, Tos-Gly-Pro-Arg-AMC), Ki
# Format: biochemical
# DETAILS: Table II, various active site inhibitor segments; human thrombin 3.0×10^-11 M; read-out: Ki
# output: numeric value plus its unit

>>> result("β-naphthyl sulfonyl-Arg-(D-Pipecolic acid)-(12-aminododecanoic acid)-4-aminobutyric acid)-Asp-Phe-Glu-Glu-Ile-Pro-Glu-Glu-Tyr-Leu-Gln-OH [Peptide P532]")
"0.024 nM"
>>> result("(D-β-cyclohexylalanine)-Arg-(D-Pipecolic acid)-(12-aminododecanoic acid)-4-aminobutyric acid)-Asp-Phe-Glu-Glu-Ile-Pro-Glu-Glu-Tyr-Leu-Gln-OH [Peptide P481]")
"9.51 nM"
>>> result("(D-Phe)-Arg-(D-Pipecolic acid)(12-aminododecanoic acid)-4-aminobutyric acid)-Asp-Phe-Glu-Glu-Ile-Pro-Glu-Glu-Tyr-Leu-Gln-OH [Peptide P483]")
"54.9 nM"
>>> result("dansyl-(D-Arg)-(D-Pipecolic acid)-(12-aminododecanoic acid)-4-aminobutyric acid)-Asp-Phe-Glu-Glu-Ile-Pro-Glu-Glu-Tyr-Leu-Gln-OH [Peptide P492]")
"1.02 nM"

Write down Ki measured for item dansyl-Nle-(D-Pipecolic acid)-(12-aminododecanoic acid)-4-aminobutyric acid)-Asp-Phe-Glu-Glu-Ile-Pro-Glu-Glu-Tyr-Leu-Gln-OH [Peptide P493] 5.2 nM
